Test system: MiaPaca-2 cells
procedureText: MiaPaca-2 Cell Proliferation Assay
Type: cell-based
measurementSetup: Homo sapiens, MIA PaCa-2, MiaPaca-2 cells; Table 2; read-out: Inhibition of cell proliferation in MiaPaca-2 (IC50 class)
measurementName: IC50

Example compounds with recorded IC50:
[
  {
    "entrySmiles": "COC(=O)Nc1cc(-c2cccc(-c3cc(NC(=O)c4ccc(C(F)(F)F)nc4)cnc3C)c2)ccn1",
    "assayedTarget": "MiaPaca-2 cells",
    "IC50": "500 to 1000 nM"
  },
  {
    "entrySmiles": "CC(=O)Nc1cc(-c2cccc(-c3cc(NC(=O)c4ccc(C(F)F)nc4)ccc3C)n2)ccn1",
    "assayedTarget": "MiaPaca-2 cells",
    "IC50": "500 to 1000 nM"
  },
  {
    "entrySmiles": "Cc1ccc(NC(=O)c2ccc(C(F)(F)F)nc2)cc1-c1cncc(-c2ccnc(NC(=O)C3CC3)c2)c1",
    "assayedTarget": "MiaPaca-2 cells",
    "IC50": "500 to 1000 nM"
  },
  {
    "entrySmiles": "CNc1cc(-c2cc(NC(=O)c3cc(C(F)(F)F)cnn3)ccc2C)cc(-c2ccnc(NC(=O)C3CC3)c2)n1",
    "assayedTarget": "MiaPaca-2 cells",
    "IC50": "< 100 nM"
  },
  {
    "entrySmiles": "Cc1ccc(NC(=O)c2cc(C#N)cnn2)cc1-c1cc(N[C@H](C)CO)nc(-c2ccnc(NC(=O)C3CC3)c2)c1",
    "assayedTarget": "MiaPaca-2 cells",
    "IC50": "1000 to 10000 nM"
  }
]

Please give the documented IC50 of COC(=O)Nc1cc(-c2ccnc(-c3cc(NC(=O)c4ccc(C(F)(F)F)nc4)ccc3C)n2)ccn1
1000 to 10000 nM

Please give the documented IC50 of Cc1ccc(NC(=O)c2cncc(C(C)(C)F)c2)cc1-c1cncc(-c2cc(NC(=O)C3CC3)ncn2)c1
100 to 500 nM
